Assay: Lipophilicity, log D of the compound
Settings: octanol/water, logD
QUANTITY MEASURED: logD

Known results for compounds:
COMPOUND	QUANTITY MEASURED	REPORTED MEASUREMENT
CN[C@@H](C)C(=O)N[C@H]1CCC[C@H]2C[C@H]3CCN(CCC4=C(C)OCN4C)C[C@H]3N2C1=O	logD	0.1
CN[C@@H](C)C(=O)N[C@H]1CCC[C@H]2C[C@H]3CCN(CCc4ccc(Br)cc4)C[C@H]3N2C1=O	logD	2.2
CN[C@@H](C)C(=O)N[C@H]1CCC[C@H]2C[C@H]3CCN(CCc4scnc4C)C[C@H]3N2C1=O	logD	0.3
CN[C@@H](C)C(=O)N[C@H]1CCC[C@H]2C[C@H]3CCN(CCC4CCCCC4)C[C@H]3N2C1=O	logD	1.5
C#CCOCC(C(=O)N1CC[C@@H]2C[C@@H]3CCC[C@H](NC(=O)[C@H](C)NC)C(=O)N3[C@@H]2C1)c1ccccc1 (stereo in doubt; 42)	logD	0.6

(I) CN[C@@H](C)C(=O)N[C@H]1CCC[C@H]2C[C@H]3CCN(C(=O)C(OCC#CC#CCOC(C(=O)N4CC[C@@H]5C[C@@H]6CCC[C@H](NC(=O)[C@H](C)NC)C(=O)N6[C@@H]5C4)c4ccccc4)c4ccccc4)C[C@H]3N2C1=O (stereo in doubt; 53)
(II) CN[C@@H](C)C(=O)N[C@H]1CCC[C@H]2C[C@H]3CCN(S(=O)(=O)c4ccccc4)C[C@H]3N2C1=O
(III) CN[C@@H](C)C(=O)N[C@H]1CCC[C@H]2C[C@H]3CCN(CC(C)C)C[C@H]3N2C1=O
Returns the items ordered by logD, from maximum to minimum. Lab note: final answer is the ordered label list.
I, II, III

(I) CN[C@@H](C)C(=O)N[C@H](C(=O)N1CC[C@H]2CCN(CCc3ccccc3)C[C@H]21)C1CCCCC1
(II) CN[C@@H](C)C(=O)N[C@H]1CCC[C@H]2C[C@H]3CCN(CCc4cccc(OC)c4)C[C@H]3N2C1=O
(III) CN[C@@H](C)C(=O)N[C@H]1CCC[C@H]2C[C@H]3CCN(C(=O)Nc4ccccc4)C[C@H]3N2C1=O
Ascending by logD, please. # list labels per requested ordering
III, II, I

(I) CN[C@@H](C)C(=O)N[C@H]1CCC[C@H]2C[C@H]3CCN(Cc4ccccc4)C[C@H]3N2C1=O
(II) CN[C@@H](C)C(=O)N[C@H]1CCC[C@H]2C[C@H]3CCN(CCc4ccccc4F)C[C@H]3N2C1=O
Decide: I or II , by lowest recorded logD. Returns: label corresponding to the selected item.
I

(P) CN[C@@H](C)C(=O)N[C@H]1CCC[C@H]2C[C@H]3CCN(CC(C)c4ccccc4)C[C@H]3N2C1=O (mixture of isomers)
(Q) CN[C@@H](C)C(=O)N[C@H]1CCC[C@H]2C[C@H]3CCN(CCc4c[nH]c5ccccc45)C[C@H]3N2C1=O
Recorded logD values differ for P and Q ; which one is higher? Pick one and reply with its label.
P

(P) CN[C@@H](C)C(=O)N[C@H]1CCC[C@H]2C[C@H]3CCN(CCc4ccccc4C)C[C@H]3N2C1=O
(Q) CN[C@@H](C)C(=O)N[C@H]1CCC[C@H]2C[C@H]3CCN(CCc4ccccn4)C[C@H]3N2C1=O
Given the listed records, identify the one among P and Q with higher logD. Please respond with the label that marks your chosen entry.
P

(A) CN[C@@H](C)C(=O)N[C@H]1CCC[C@H]2C[C@H]3CCN(CCCc4ccccc4)C[C@H]3N2C1=O
(B) CN[C@@H](C)C(=O)N[C@H]1CCC[C@H]2C[C@H]3CCN(CCc4ccc(OC)cc4)C[C@H]3N2C1=O
(C) CN[C@@H](C)C(=O)N[C@H]1CCC[C@H]2C[C@H]3CCN(S(=O)(=O)Cc4ccccc4)C[C@H]3N2C1=O
(D) CN[C@@H](C)C(=O)N[C@H]1CCC[C@H]2C[C@H]3CCN(CCc4ccc(O)cc4)C[C@H]3N2C1=O
Rank the items in ascending order with respect to logD. // rank by listing labels in the order requested
D, C, B, A

(a) CN[C@@H](C)C(=O)N[C@H]1CCC[C@H]2C[C@H]3CCN(CCc4cccc(C)c4)C[C@H]3N2C1=O
(b) CN[C@@H](C)C(=O)N[C@H]1CCC[C@H]2C[C@H]3CCN(CCc4ccc(C(F)(F)F)cc4)C[C@H]3N2C1=O
Kindly compare a with b and tell me which has the lower logD figure. // caller expects the label of the chosen entry
a
(a: 1.3, b: 2.1)

(A) CN[C@@H](C)C(=O)N[C@H]1CCC[C@H]2C[C@H]3CCN(CCc4ccc(C)cc4)C[C@H]3N2C1=O
(B) CN[C@@H](C)C(=O)N[C@H]1CCC[C@H]2C[C@H]3CCN(CCc4ccc(Cl)c(Cl)c4)C[C@H]3N2C1=O
Recorded logD values differ for A and B ; which one is higher? State your choice using its label.
B

* * *

Molecular target: Baculoviral IAP repeat-containing protein 2 (Homo sapiens, UniProt Q13490)
Sequence (Q13490 whole entry): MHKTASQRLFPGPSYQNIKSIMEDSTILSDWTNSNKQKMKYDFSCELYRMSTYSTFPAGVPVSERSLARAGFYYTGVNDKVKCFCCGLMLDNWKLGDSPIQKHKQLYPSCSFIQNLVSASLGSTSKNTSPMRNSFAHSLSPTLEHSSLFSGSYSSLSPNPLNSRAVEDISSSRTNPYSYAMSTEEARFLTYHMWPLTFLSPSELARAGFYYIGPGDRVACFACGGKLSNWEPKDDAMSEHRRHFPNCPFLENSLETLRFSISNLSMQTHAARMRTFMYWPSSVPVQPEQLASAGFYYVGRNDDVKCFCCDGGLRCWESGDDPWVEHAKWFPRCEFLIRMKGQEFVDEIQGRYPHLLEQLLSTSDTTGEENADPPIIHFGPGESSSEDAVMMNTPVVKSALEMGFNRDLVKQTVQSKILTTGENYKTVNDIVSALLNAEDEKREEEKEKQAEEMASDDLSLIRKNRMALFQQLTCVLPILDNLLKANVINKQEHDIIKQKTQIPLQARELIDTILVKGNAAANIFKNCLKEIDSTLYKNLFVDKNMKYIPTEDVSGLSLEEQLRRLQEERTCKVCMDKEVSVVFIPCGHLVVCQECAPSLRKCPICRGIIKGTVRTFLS
QUANTITY MEASURED: IC50 (nM)

Record excerpt, results attached:
COMPOUND	IC50 (nM)
CN[C@@H](C)C(=O)N[C@H]1CCC[C@H]2C[C@H]3CCN(S(=O)(=O)Cc4ccccc4)C[C@H]3N2C1=O	2800
CN[C@@H](C)C(=O)N[C@H]1CCC[C@H]2C[C@H]3CCN(S(=O)(=O)c4ccccc4)C[C@H]3N2C1=O	8000
CN[C@@H](C)C(=O)N[C@H]1CCC[C@H]2C[C@H]3CCN(CCc4ccc(F)cc4)C[C@H]3N2C1=O	21

(1) CN[C@@H](C)C(=O)N[C@H](C(=O)N1CC[C@H]2CCN(CCc3ccccc3)C[C@H]21)C1CCCCC1
(2) CN[C@@H](C)C(=O)N[C@H]1CCC[C@H]2SC(C)(C)C(C(=O)Nc3cc(C)nn3-c3ccccc3)N2C1=O (stereo not given in full)
Parameter check: reported IC50 is higher for which label, 1 or 2 ? Give the label of your selection.
2

* * *

Assay: Intrinsic clearance in human liver microsomes
Details: microsomes, CLH
QUANTITY MEASURED: microsomal CLint (µL/min/mg)
# number only, unit µL/min/mg dropped from output

So what's the measured microsomal CLint for this one? "CN[C@@H](C)C(=O)N[C@H]1CCC[C@H]2C[C@H]3CCN(C(=O)OCc4ccccc4)C[C@H]3N2C1=O"
20

* * *

Experiment: Percentage unbound in human plasma
QUANTITY MEASURED: fraction unbound
Form: value (number only, do not type unit).

For the compound shown here, "CN[C@@H](C)C(=O)N[C@H]1CCC[C@H]2C[C@H]3CCN(C(=O)Oc4ccccc4)C[C@H]3N2C1=O" , give the reported fraction unbound.
0.51

* * *

Test: Lipophilicity, log D of the compound
Conditions: octanol/water, logD
QUANTITY MEASURED: logD

(a) CN[C@@H](C)C(=O)N[C@H]1CCC[C@H]2C[C@H]3CCN(CCc4ccc(Cl)cc4)C[C@H]3N2C1=O
(b) CN[C@@H](C)C(=O)N[C@H]1CCC[C@H]2C[C@H]3CCN(C(=O)Cc4ccccc4)C[C@H]3N2C1=O
(c) CN[C@@H](C)C(=O)N[C@H]1CCC[C@H]2C[C@H]3CCN(C(c4ccccc4)c4ccccc4)C[C@H]3N2C1=O
// rank above by logD: first = highest number Give your ranking as a list of the labels in the requested order.
c, a, b

* * *

Assay: Intrinsic clearance in human liver microsomes
Conditions: liver microsomes, CLH
QUANTITY MEASURED: microsomal CLint (µL/min/mg)

For orientation, consider the following solved cases.
STRUCTURE SMILES STRING	UNIT ABBREVIATION	microsomal CLint
CN[C@@H](C)C(=O)N[C@H]1CCC[C@H]2C[C@H]3CCN(CCc4ccccc4C)C[C@H]3N2C1=O	µL/min/mg	6.8
CN[C@@H](C)C(=O)N[C@H]1CCC[C@H]2C[C@H]3CCN(CCc4ccc(C(F)(F)F)cc4)C[C@H]3N2C1=O	µL/min/mg	5.2
CN[C@@H](C)C(=O)N[C@H]1CCC[C@H]2C[C@H]3CCN(CCc4nc5cc(C)ccc5[nH]4)C[C@H]3N2C1=O	µL/min/mg	9.1

(A) CN[C@@H](C)C(=O)N[C@H]1CCC[C@H]2C[C@H]3CCN(CCc4ccc(Cl)cc4)C[C@H]3N2C1=O
(B) CN[C@@H](C)C(=O)N[C@H]1CCC[C@H]2C[C@H]3CCN(S(=O)(=O)Cc4ccccc4)C[C@H]3N2C1=O
(C) CN[C@@H](C)C(=O)N[C@H]1CCC[C@H]2C[C@H]3CCN(C(c4ccccc4)c4ccccc4)C[C@H]3N2C1=O
Hi! Can you put these in order of microsomal CLint, lowest number first? List each label, following the requested order.
A, C, B

Hello, the source for this data is ChEMBL document CHEMBL3232969, in case you need it.
